assay: Systemic plasma pharmacokinetics of tamoxifen and metabolites after intravaginal DARE-VVA1; set-up: species or system human (women); conditions: human, in vivo; 20 mg, Day 10; read-out: Single maximum plasma tamoxifen concentration
PROPERTY MEASURED: Cmax at 240 h (ng/mL)
Supply the numeric figure in ng/mL, leaving out any unit text.

Recall and state the measured Cmax at 240 h for `CC/C(=C(\c1ccccc1)c1ccc(OCCN(C)C)cc1)c1ccccc1` .
12

---

experiment: Systemic plasma pharmacokinetics of tamoxifen and metabolites after intravaginal DARE-VVA1; set-up: species or system human (women); conditions: human, in vivo; 20 mg, Day 10 trough; read-out: Plasma tamoxifen, median
PROPERTY MEASURED: concentration at 240 h (ng/mL)
Supply the numeric figure in ng/mL, leaving out any unit text.

Recall and state the measured concentration at 240 h for CC/C(=C(\c1ccccc1)c1ccc(OCCN(C)C)cc1)c1ccccc1 [tamoxifen] .
8.29
